Biological target: human DDR1 (Homo sapiens, UniProt Q08345)
Sequence (Q08345 19-913): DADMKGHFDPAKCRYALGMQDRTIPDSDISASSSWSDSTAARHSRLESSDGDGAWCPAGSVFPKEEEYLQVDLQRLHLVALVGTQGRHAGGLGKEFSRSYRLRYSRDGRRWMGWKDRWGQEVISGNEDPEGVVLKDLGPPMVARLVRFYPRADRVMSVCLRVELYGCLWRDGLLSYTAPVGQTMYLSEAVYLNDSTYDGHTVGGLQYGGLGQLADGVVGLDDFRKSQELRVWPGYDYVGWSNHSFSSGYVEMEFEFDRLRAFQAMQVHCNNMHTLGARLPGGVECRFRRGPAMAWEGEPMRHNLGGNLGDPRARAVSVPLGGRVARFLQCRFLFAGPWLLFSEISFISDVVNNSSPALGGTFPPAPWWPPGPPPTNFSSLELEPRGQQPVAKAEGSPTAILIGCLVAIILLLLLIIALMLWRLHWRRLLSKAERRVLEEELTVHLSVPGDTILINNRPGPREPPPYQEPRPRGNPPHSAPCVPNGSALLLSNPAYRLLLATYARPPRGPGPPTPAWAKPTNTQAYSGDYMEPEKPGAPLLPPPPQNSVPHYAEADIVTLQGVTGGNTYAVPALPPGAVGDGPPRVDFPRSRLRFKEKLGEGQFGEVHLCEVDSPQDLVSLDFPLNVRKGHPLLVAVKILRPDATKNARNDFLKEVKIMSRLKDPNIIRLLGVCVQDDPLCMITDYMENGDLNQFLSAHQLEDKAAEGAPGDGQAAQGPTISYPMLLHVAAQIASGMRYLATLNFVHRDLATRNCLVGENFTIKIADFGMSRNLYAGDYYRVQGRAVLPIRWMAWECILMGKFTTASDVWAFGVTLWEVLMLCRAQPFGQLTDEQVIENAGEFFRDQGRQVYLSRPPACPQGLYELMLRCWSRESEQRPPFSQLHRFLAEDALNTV
MEASURE_NAME: pIC50
Conceptually, pIC50 converts a concentration in mol/L into minus its log10.

Sure, the documented pIC50 for O=C(Nc1ccc(Cl)c(COc2cccnc2)c1)c1cccc(C(F)(F)F)c1 [Compound 3] is 7.03
